# ASSAY_TARGET: T1, human IL-17F (human, UniProt Q96PD4 31-163, biotinylated with Sulfo-NHS-LC-Biotin in the AlphaScreen assays only)
# T1 construct: also called hIL-17F; recombinant human IL-17F
# T1 sequence: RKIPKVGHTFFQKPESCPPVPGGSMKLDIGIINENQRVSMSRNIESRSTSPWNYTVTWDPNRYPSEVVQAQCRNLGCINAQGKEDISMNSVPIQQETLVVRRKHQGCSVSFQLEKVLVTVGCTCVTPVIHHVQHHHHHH
# ASSAY_EXPLANATION: AlphaScreen competition, hIL-17F - IL-17RC-Fc
EXPERIMENTAL_READOUT: IC50 (nM)

binder="08A08 (VHH, Class 3 Nanobody (anti-IL-17F); not shown: c-myc, His6 tag) VHH: EVQLVESGGGLVQAGGSLRLSCAASGRTFRPYRMGWFRRAPGKAREFVTLISWSSGRTSYADSVKGRFTISRDSAKNAVYLQMDNLKPEDTAVYFCAVDLSGDAVYDSWGQGTQVTVSS" numeric_value=1.3
binder="16A04 (VHH, Class 3 Nanobody (anti-IL-17F); also called IL17MS16A04; not shown: c-myc, His6 tag) VHH: EVQLVESGGGLVQAGGSLRLSCAASGRTFSSYVVGWFRQAPGKEREFIGAISGSGDSIYYAVSEKDRFTISRDNGKNTLYLQMSSLKAEDTAVYYCTADQEFGYLRFGRSEYWGQGTQVTVSS" numeric_value=0.052
binder="12A09 (VHH, Class 3 Nanobody (anti-IL-17F); not shown: c-myc, His6 tag) VHH: EVQLVESGGGLVQPGGSLRLSCAASGFTFSSYRMAWVRQAPGKGLEWVSSTSTGGEMTNYADSVKGRFTISRDNAKNTLHLQMNSLKPEDTALYYCAAGTSAGHWSTGGQGTQVTVSS" numeric_value=0.612
binder="10A04 (VHH, Class 4 Nanobody (cross-reactive: anti-IL-17A, IL-17F and IL-17A/F); not shown: c-myc, His6 tag) VHH: EVQLVESGGGLVQPGGSLRLSCAASGFTFSSYWMYWVRQAPGKGLEWISALAPGGGNRYYAESVNGRFTISRDNAKNSLYLQMNSLKSEDTAVYYCAKDHNVGYRTGEYDYGGQGTQVTVSS" numeric_value=0.22
binder="13B03 (VHH, Class 4 Nanobody (cross-reactive: anti-IL-17A, IL-17F and IL-17A/F); also called IL17MS13B03; not shown: c-myc, His6 tag) VHH: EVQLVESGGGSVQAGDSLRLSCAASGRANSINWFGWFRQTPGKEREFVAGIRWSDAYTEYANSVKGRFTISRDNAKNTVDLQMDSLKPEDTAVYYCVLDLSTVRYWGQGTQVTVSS" numeric_value=0.848
